SYSTEM TESTED: UniProt:P08253
Sequence (P08253 110-660): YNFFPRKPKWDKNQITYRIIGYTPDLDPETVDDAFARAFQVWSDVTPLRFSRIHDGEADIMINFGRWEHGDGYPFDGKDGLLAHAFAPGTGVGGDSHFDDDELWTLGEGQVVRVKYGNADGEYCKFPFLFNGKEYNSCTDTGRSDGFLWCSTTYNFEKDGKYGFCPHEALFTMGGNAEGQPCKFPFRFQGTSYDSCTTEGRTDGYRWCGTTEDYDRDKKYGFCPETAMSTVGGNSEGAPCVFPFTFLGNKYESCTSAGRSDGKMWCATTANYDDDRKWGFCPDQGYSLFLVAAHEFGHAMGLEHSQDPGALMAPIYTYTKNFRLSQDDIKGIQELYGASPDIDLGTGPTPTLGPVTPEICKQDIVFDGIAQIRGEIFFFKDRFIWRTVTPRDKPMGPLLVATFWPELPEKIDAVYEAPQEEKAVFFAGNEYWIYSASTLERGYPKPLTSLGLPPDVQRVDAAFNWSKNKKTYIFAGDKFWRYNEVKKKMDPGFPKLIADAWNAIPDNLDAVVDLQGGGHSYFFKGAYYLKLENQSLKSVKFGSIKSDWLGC
pKi: −log10 of the molar value. Counter-ions that a name gives are not always drawn.
Given measured pKi, output criterion met if it is greater than or equal to 10 and criterion not met if not.

1. CN1CCN(S(=O)(=O)c2ccc(Oc3ccc(Cl)cc3)cc2)[C@@H](C(=O)NO)C1 [Example 11(a), hydrochloride] : criterion met
2. O=C(NO)[C@@H]1C[S@+]([O-])CCN1S(=O)(=O)c1ccc(Oc2ccc(Br)cc2)cc1 (racemic) : criterion met
3. O=C(NO)C1C[S+]([O-])CCN1S(=O)(=O)c1ccc(Oc2ccc(F)cc2)cc1 (racemic) : criterion met
4. Cl.O=C(NO)C1CNCCN1S(=O)(=O)c1ccc(Oc2ccc(Br)cc2)cc1 (racemic) [5(a), hydrochloride] : criterion not met
5. O=C(NO)[C@H]1CNCCN1S(=O)(=O)c1ccc(Oc2ccc(Cl)cc2)cc1 [Example 10(a), hydrochloride] : criterion not met

Prompt line: Entry O=C(NO)[C@H]1CNCCN1S(=O)(=O)c1ccc(Oc2ccc(F)cc2)cc1 [Example 10(b), hydrochloride] : is its pKi no less than 10?
Response line: criterion not met

Prompt line: Confirm if pKi reported for the compound O=C(NO)C1CSCCN1S(=O)(=O)c1ccc(Oc2ccc(F)cc2)cc1 (racemic) is 10 or above.
Response line: criterion met

====

Counter-ions that a name gives are not always drawn.
ATTRIBUTE MEASURED: melting point (°C)
Give the number; °C is assumed, so skip it.

1. CC(C)(C)OC(=O)N1CCN(S(=O)(=O)c2ccc(Oc3ccc(Br)cc3)cc2)C(C(=O)NO)C1 (racemic) [Example 4] : 112.4
2. CCOC(=O)CN1CCN(S(=O)(=O)c2ccc(Oc3ccc(Cl)cc3)cc2)[C@@H](C(=O)NO)C1 (as salt: hydrochloride) [Example 11(c)] : 163.7

Prompt line: Given the entry O=C(NO)C1CNCCN1S(=O)(=O)c1ccc(Oc2ccccc2)cc1 (racemic) [Example 5(b)] , report its measured melting point.
Response line: 160.4

====

SYSTEM TESTED: matrilysin (Matr.) (Homo sapiens, UniProt P09237)
Sequence (P09237 95-267): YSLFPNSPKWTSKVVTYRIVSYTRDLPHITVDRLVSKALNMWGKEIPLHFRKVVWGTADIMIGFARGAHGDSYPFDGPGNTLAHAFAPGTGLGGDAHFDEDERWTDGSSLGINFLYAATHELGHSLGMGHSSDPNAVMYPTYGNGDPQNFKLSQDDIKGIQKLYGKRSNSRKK
pKi: −log10 of the molar value. Structures can show the parent of a compound that is named as a salt.
Tick TRUE if pKi is 7 or greater. Tick FALSE if pKi is less than 7.

Worked examples, 2 molecules total:
1. CC(C)(C)OC(=O)N1CCN(S(=O)(=O)c2ccc(Oc3ccc(F)cc3)cc2)[C@@H](C(=O)NO)C1 [Example 9(b)] : FALSE
2. CN1CCN(S(=O)(=O)c2ccc(Oc3ccc(Cl)cc3)cc2)[C@@H](C(=O)NO)C1 [Example 11(a), hydrochloride] : FALSE

Prompt line: Could you tell me if the measured pKi of CC1(C)[C@H](C(=O)NO)N(S(=O)(=O)c2ccc(Oc3ccc(Br)cc3)cc2)CC[S@@+]1[O-] [Example 17(a)] reaches 7 or more?
Response line: TRUE

Prompt line: I'd appreciate it if you could say whether CN1CCN(S(=O)(=O)c2ccc(Oc3ccccc3)cc2)[C@@H](C(=O)NO)C1 [Example 11(b)] has pKi at least equal to 7.
Response line: FALSE

Prompt line: # bool: pKi of O=C1C[C@H](C(=O)NO)N(S(=O)(=O)c2ccc(Oc3ccc(F)cc3)cc2)CN1 [Example 15(b)] >= 7
Response line: FALSE

====

SYSTEM TESTED: HFC (Homo sapiens)
Sequence (P03956 100-469): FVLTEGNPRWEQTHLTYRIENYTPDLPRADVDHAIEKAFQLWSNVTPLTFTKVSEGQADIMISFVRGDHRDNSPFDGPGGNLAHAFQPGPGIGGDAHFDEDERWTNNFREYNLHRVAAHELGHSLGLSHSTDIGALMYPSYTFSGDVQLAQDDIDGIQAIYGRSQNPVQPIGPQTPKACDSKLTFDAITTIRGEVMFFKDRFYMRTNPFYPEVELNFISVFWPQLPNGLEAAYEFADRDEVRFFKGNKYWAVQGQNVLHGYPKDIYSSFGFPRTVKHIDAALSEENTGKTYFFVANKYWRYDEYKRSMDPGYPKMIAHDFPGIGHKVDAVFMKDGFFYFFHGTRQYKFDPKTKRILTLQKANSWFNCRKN
Where a name gives a salt, the structure may show the parent alone.
ATTRIBUTE MEASURED: Ki (nM)
Number only, in nM; omit the unit.

Below are worked cases with known answers.
1) CC(C)(C)OC(=O)N1CCN(S(=O)(=O)c2ccc(Oc3ccc(C#N)cc3)cc2)C(C(=O)NO)C1 (racemic) : 580
2) CC(C)(C)OC(=O)N1CCN(S(=O)(=O)c2ccc(Oc3ccccn3)cc2)C(C(=O)NO)C1 (racemic) : 550
3) Cl.O=C(NO)C1CNCCN1S(=O)(=O)c1ccc(Oc2ccc(Br)cc2)cc1 (racemic) [5(a), hydrochloride] : 68
4) O=C(NO)C1C[S+]([O-])CCN1S(=O)(=O)c1ccc(Oc2ccc(F)cc2)cc1 (racemic) : 28
5) O=C(NO)[C@H]1CNCCN1S(=O)(=O)c1ccc(Oc2ccc(F)cc2)cc1 [Example 10(b), hydrochloride] : 44
6) CS(=O)(=O)N1CCN(S(=O)(=O)c2ccc(Oc3ccc(Cl)cc3)cc2)[C@@H](C(=O)NO)C1 : 2.5
7) CN1CCN(S(=O)(=O)c2ccc(Oc3ccc(Cl)cc3)cc2)[C@@H](C(=O)NO)C1 [Example 11(a), hydrochloride] : 130
8) CC1(C)[C@H](C(=O)NO)N(S(=O)(=O)c2ccc(Oc3ccncc3)cc2)CC[S@@+]1[O-] (single isomer, unassigned; isomer 1) [Example 19(a), 1(R), 3(S) isomer] : 32
9) CC1(C)SCCN(S(=O)(=O)c2ccc(Oc3ccc(Cl)cc3)cc2)[C@H]1C(=O)NO : 1.3
10) CCOC(=O)CN1CCN(S(=O)(=O)c2ccc(Oc3ccc(Cl)cc3)cc2)[C@@H](C(=O)NO)C1 [Example 11(c), hydrochloride] : 48

Prompt line: May I ask what Ki has been recorded for CC(C)(C)OC(=O)N1CCN(S(=O)(=O)c2ccc(Oc3ccc(Br)cc3)cc2)C(C(=O)NO)C1 (racemic) ?
Response line: 60

Prompt line: What does the record list as Ki for CC1(C)SCCN(S(=O)(=O)c2ccc(Oc3ccc(-n4ccnc4)cc3)cc2)[C@H]1C(=O)NO ?
Response line: 15

====

SYSTEM TESTED: UniProtKB P08254
Sequence (P08254 100-477): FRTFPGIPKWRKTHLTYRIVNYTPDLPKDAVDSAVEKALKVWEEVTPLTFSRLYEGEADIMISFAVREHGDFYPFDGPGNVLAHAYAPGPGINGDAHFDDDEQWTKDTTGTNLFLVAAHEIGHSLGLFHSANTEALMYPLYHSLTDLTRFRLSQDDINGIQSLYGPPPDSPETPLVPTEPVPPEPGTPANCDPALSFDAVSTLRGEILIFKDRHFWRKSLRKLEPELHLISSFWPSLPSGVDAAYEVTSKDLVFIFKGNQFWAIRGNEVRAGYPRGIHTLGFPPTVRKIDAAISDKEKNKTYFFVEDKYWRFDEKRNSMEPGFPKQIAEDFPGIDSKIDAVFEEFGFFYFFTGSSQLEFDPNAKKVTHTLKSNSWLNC
PROTOCOL DETAILS: MCA fluorogenic enzyme assay, competitive inhibition analysis (Ki,app), stromelysin
Format: biochemical
ATTRIBUTE MEASURED: pKi
The meaning of pKi here: minus log10 of the concentration in molar units.

Prompt line: State its pKi on UniProtKB P08254: CC1(C)SCCN(S(=O)(=O)c2ccc(Oc3ccccn3)cc2)[C@H]1C(=O)NO [Example 18(b)]
Response line: 9.29

====

SYSTEM TESTED: UniProtKB P45452
// boundary case: Ki equal to 0.02 nM maps to class 0; strictly smaller maps to class 1

Illustrative cases are given below, each with its answer.
1) CC1(C)[C@H](C(=O)NO)N(S(=O)(=O)c2ccc(Oc3ccncc3)cc2)CC[S@+]1[O-] [Example 19(a), 1(S), 3(S) isomer] : class 0
2) CC(C)(C)OC(=O)N1CCN(S(=O)(=O)c2ccc(Oc3ccc(Cl)cc3)cc2)[C@@H](C(=O)NO)C1 : class 1
3) CC1(C)[C@H](C(=O)NO)N(S(=O)(=O)c2ccc(Oc3ccncc3)cc2)CC[S@@+]1[O-] (single isomer, unassigned; isomer 1) [Example 19(a), 1(R), 3(S) isomer] : class 0
4) O=C(NO)C1CSCCN1S(=O)(=O)c1ccc(Oc2ccccc2)cc1 (racemic) : class 0

Could you now consider this next molecule?
Prompt line: State whether 0.02 nM exceeds Ki recorded for O=C(NO)[C@@H]1C[S@+]([O-])CCN1S(=O)(=O)c1ccc(Oc2ccc(Br)cc2)cc1 (racemic) .
Response line: class 1

FYI, the data here is from patent US6849732B2.
